Below, each entry is listed alongside its reported log10 IC50.
biological target: full length SGK1 (Homo sapiens); construct: 125 μM full length SGK1 (Life Technologies Part #PR7358A); purchased Life Technologies PR7358A; assay: SGK1 inhibition Assay A (Caliper LabChip electrophoretic separation of fluorescent peptide substrate and phosphorylated product); assay type: biochemical; conditions: Assay A; 20 μM ATP, 40 min incubation; read-out: SGK1 IC50
Sequence (O00141 whole entry): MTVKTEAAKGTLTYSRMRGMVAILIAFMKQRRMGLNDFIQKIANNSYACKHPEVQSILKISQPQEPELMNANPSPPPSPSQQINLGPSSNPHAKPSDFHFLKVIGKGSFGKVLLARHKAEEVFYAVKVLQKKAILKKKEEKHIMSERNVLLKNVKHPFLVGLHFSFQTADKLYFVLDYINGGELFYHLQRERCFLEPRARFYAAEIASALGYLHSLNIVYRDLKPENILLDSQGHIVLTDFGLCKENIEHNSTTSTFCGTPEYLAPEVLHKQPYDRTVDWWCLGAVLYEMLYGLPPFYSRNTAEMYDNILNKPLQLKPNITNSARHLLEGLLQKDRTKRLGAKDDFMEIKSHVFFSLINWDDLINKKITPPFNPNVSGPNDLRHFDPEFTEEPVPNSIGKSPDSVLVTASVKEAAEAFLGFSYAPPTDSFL
Reminder: these figures are log10 of reported IC50, in nM before transformation.

Here are 10 compounds together with their reported answers.
*Q* Give the measured log10 IC50 for CC(C)N1CC2(CC(Oc3cc(Cl)sc3C(=O)N[C@@H]3CCCN(c4cc(-c5ccc(C#N)c(F)c5)n5ncnc(N)c45)C3)C2)C1
*A* 0.48

*Q* Fill in reported log10 IC50 for this entry: CC(=O)N1CC=C(c2cc(N3CCC[C@@H](NC(=O)c4cccc(OCC5CN(C)C5)n4)C3)c3c(N)ncnn23)C1
*A* 1.36

*Q* Look up and report measured log10 IC50 for this entry: CC(=O)N1CC=C(c2cc(N3CCC[C@@H](NC(=O)c4cc(C)on4)C3)c3c(N)ncnn23)C1
*A* 2.39

*Q* Quickly give me recorded log10 IC50 for CC(C)N1CCC(Oc2cc(C3CC3)sc2C(=O)N[C@@H]2CCCN(c3cc(-c4ccc(C#N)nc4)n4ncnc(N)c34)C2)CC1
*A* 0.70

*Q* Name the recorded log10 IC50 of the item COc1ncccc1C(=O)N[C@@H]1CCCN(c2cc(-c3ccc(S(C)(=O)=O)cc3)n3ncnc(N)c23)C1 in your answer.
*A* 2.11

*Q* State its log10 IC50: CC(C)(C)OC(=O)N[C@@H]1CCCN(c2cc(-c3ccc(S(C)(=O)=O)cc3)n3ncnc(N)c23)C1
*A* 3.24

*Q* State its log10 IC50: CC(=O)N1CC=C(c2cc(N3CCC[C@@H](NC(=O)C4=NN(c5ccccc5)C(=O)C4)C3)c3c(N)ncnn23)C1
*A* 2.59

*Q* State, in one line, measured log10 IC50 of COc1cc(C(=O)N(C)[C@@H]2CCCN(c3cc(-c4ccc(S(C)(=O)=O)cc4)n4ncnc(N)c34)C2)ccn1
*A* 2.58

*Q* For the compound Nc1ncnn2c(C3=CCN(C(=O)[C@@H]4CCOC4)C3)cc(N3CCC[C@@H](NC(=O)c4ccc(Cl)s4)C3)c12 , report log10 IC50.
*A* 0.70

*Q* Quick one: give measured log10 IC50 for Nc1ncnn2c(C3=CCN(C(=O)[C@@H]4CCCNC4)C3)cc(N3CCC[C@@H](NC(=O)c4ccc(Cl)s4)C3)c12
*A* 1.46

New cases:
*Q* Entry N#Cc1cccc(-c2ccc(C(=O)N[C@@H]3CCCN(c4cc(-c5ccnc(C(F)F)c5)n5ncnc(N)c45)C3)s2)c1 needs its log10 IC50 filled in; supply it.
*A* 0.70

*Q* Return log10 IC50 (reported value) for this compound: CN(C)CCOc1cc(Cl)sc1C(=O)N[C@@H]1CCCN(c2cc(-c3ccc(-n4cnc(C#N)n4)nc3)n3ncnc(N)c23)C1
*A* 0.78
